The values you see were collected from the supplement of paper PMC10883282.

// values below are reported relative viability
Tested on: SK-ES-1
Assay: relative viability vs DMSO control (72 h) (fraction); higher = more viable cells
Conditions: 0.00457 µM

compound: CC(C)(C)c1cc(NC(=O)Nc2ccc(-c3cn4c(n3)sc3cc(OCCN5CCOCC5)ccc34)cc2)no1 [Quizartinib]
relative viability: 1.1
//
compound: COc1cc2nccc(Oc3ccc(NC(=O)Nc4cc(C)on4)c(Cl)c3)c2cc1OC [Tivozanib]
relative viability: 1.04
//
compound: C[C@@H]1COCCN1c1cc(-c2ccnn2C)c2ccnc(-c3ccn[nH]3)c2n1
relative viability: 1.09
//
compound: COc1c(OCCCN2CCOCC2)ccc2c1N=C(NC(=O)c1cnc(N)nc1)N1CCN=C21 [Copanlisib]
relative viability: 0.808

----------
System: SW982
Test: relative viability vs DMSO control (72 h) (fraction); higher = more viable cells
Conditions: 10 µM
experimental_endpoint: relative viability

structure: C=CC(=O)Nc1cccc(Oc2nc(Nc3ccc(N4CCN(C)CC4)cc3)nc3ccsc23)c1
result_value: 0.317
//
structure: COCc1c(-c2cc3cc(C)cc(OC)c3s2)c2c(N)ncnn2c1CN1CCNC(=O)C1
result_value: 0.362
//
structure: CCCS(=O)(=O)Nc1ccc(F)c(C(=O)c2c[nH]c3ncc(-c4ccc(Cl)cc4)cc23)c1F
result_value: 0.532
//
structure: CCc1cc2c(cc1N1CCC(N3CCOCC3)CC1)C(C)(C)c1[nH]c3cc(C#N)ccc3c1C2=O
result_value: 1.06
//
structure: C=CC(=O)N1CCC([C@@H]2CCNc3c(C(N)=O)c(-c4ccc(Oc5ccccc5)cc4)nn32)CC1
result_value: 0.731
//
structure: C[C@@H]1CCN(C(=O)CC#N)C[C@@H]1N(C)c1ncnc2[nH]ccc12
result_value: 0.93
//
structure: Cc1ccc(NC(=O)c2ccc(CN3CCN(C)CC3)cc2)cc1Nc1nc(-c2cccnc2)cs1
result_value: 0.0613

----------
Test system: A204
Assay: standardised AUC of viability dose-response curve (72 h) (fraction (0-1)); higher = less growth inhibition (more resistant)
experimental_endpoint: standardised AUC

molecule: CNC(=O)c1cc(Oc2ccc(NC(=O)Nc3ccc(Cl)c(C(F)(F)F)c3)c(F)c2)ccn1 [REGORAFENIB]
result_value: 0.768
//
molecule: CC(C)N1CCN(Cc2cnc(-c3cc(-c4cccc5[nH]ccc45)cc4[nH]ncc34)o2)CC1 [NEMIRALISIB]
result_value: 0.908
//
molecule: CNC(=O)c1ccc(-c2cnc3ncc(Cc4ccc5ncccc5c4)n3n2)cc1F [CAPMATINIB]
result_value: 0.971

----------
System: SK-ES-1
Test: relative viability vs DMSO control (72 h) (fraction); higher = more viable cells
Settings: 0.01372 µM
// values below are reported relative viability

molecule: Cn1cnc2c(F)c(Nc3ccc(Br)cc3F)c(C(=O)NOCCO)cc21 [Binimetinib]
system_under_test: SK-ES-1
relative viability: 0.95
--
molecule: COCc1c(-c2cc3cc(C)cc(OC)c3s2)c2c(N)ncnn2c1CN1CCNC(=O)C1 [Rogaratinib]
system_under_test: SK-ES-1
relative viability: 1.07
--
molecule: C=CC(=O)N1CCC([C@@H]2CCNc3c(C(N)=O)c(-c4ccc(Oc5ccccc5)cc4)nn32)CC1 [Zanubrutinib]
system_under_test: SK-ES-1
relative viability: 0.949
